This collection of values is drawn from patent US20260263606A1.

Target: METTL3-METTL14 (Homo sapiens)
Conditions: TR-FRET assay
Quantity: log10(IC50) (log10 of the value in µM)
// do not treat as linear: log10 of IC50, unit µM

Please review the following examples before continuing.
CNc1cc(N2CCC(O)(CNc3ccc(CN4CCC(C)(C)CC4)nc3)CC2)ncn1	0.76
CNc1cc(N2CCC3(CC2)CN(c2ccc(CN4CCC(C)(C)CC4)cc2)CC(=O)N3)ncn1	-1.05
CNc1cc(N2CCC(O)(CNc3ccc(CN4CCC(C)(C)CC4)cn3)CC2)ncn1	0.66
CNc1cc(N2CCC(O)(CNc3ccc(CN4CCC(C)(C)CC4)cc3)CC2)ncn1	0.70
CNc1cc(N2CCC3(CC2)CN(c2ccc(CN4CCC(C)(C)CC4)cc2)CC(=O)N3C)ncn1	0.18

Now look at this one.
Returns the measured log10(IC50) for the input compound. Input: CC1(C)CCN(Cc2ccc(NCC3(O)CCN(c4cc(NCc5ccccc5)ncn4)CC3)cn2)CC1
-0.10

* * *

Biological target: METTL3-METTL14 (Homo sapiens)
Conditions: read-out: IC50 for N6-adenosine-methyltransferase, exemplary PROTAC compounds; Table 9, HTRF, triplicates
Quantity: pIC50
pIC50 is defined as minus the log10 of a concentration measured in mol/L.

CC1(C)CCN(Cc2cc(F)c(N3CC(=O)NC4(CCN(c5cc(NCCCNC(=O)CCCCCCCCNc6cccc7c6CN(C6CCC(=O)NC6=O)C7=O)ncn5)CC4)C3)cc2F)CC1 (stereo not drawn) [Compound 55-1]	7.18
CC1(C)CCN(Cc2ccc(N3CC(=O)NC4(CCN(c5cc(NCCCNC(=O)CCOCCOCCOCCOCCNc6cccc7c6C(=O)N(C6CCC(=O)NC6=O)C7=O)ncn5)CC4)C3)cc2)CC1 (stereo not drawn) [Compound 10-6]	6.23

Turning now to a further record.
Can you look up pIC50 on METTL3-METTL14 (Homo sapiens) for CC1(C)CCN(Cc2cc(F)c(N3CC(=O)NC4(CCN(c5cc(NCc6cccc(CNC(=O)CCCCCCCCn7cc(CNc8cccc9c8C(=O)N(C8CCC(=O)NC8=O)C9=O)nn7)c6)ncn5)CC4)C3)cc2F)CC1 (stereo not drawn) [Compound 52-1] ?
7.06

* * *

Target: METTL3-METTL14 (Homo sapiens, UniProt Q86U44)
Sequence (Q9HCE5 whole entry): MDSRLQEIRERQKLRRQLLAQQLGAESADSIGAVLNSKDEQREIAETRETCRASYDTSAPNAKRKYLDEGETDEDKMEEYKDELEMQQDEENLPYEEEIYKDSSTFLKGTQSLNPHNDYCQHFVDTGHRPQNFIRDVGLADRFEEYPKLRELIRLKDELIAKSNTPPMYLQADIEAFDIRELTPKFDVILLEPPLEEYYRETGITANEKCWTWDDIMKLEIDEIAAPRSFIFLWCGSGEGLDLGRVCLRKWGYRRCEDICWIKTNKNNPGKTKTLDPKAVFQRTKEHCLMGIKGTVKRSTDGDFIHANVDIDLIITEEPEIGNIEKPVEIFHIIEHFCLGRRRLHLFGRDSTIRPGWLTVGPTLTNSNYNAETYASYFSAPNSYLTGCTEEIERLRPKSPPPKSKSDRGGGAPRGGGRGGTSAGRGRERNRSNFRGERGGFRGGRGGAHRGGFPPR
Sequence (Q86U44 whole entry): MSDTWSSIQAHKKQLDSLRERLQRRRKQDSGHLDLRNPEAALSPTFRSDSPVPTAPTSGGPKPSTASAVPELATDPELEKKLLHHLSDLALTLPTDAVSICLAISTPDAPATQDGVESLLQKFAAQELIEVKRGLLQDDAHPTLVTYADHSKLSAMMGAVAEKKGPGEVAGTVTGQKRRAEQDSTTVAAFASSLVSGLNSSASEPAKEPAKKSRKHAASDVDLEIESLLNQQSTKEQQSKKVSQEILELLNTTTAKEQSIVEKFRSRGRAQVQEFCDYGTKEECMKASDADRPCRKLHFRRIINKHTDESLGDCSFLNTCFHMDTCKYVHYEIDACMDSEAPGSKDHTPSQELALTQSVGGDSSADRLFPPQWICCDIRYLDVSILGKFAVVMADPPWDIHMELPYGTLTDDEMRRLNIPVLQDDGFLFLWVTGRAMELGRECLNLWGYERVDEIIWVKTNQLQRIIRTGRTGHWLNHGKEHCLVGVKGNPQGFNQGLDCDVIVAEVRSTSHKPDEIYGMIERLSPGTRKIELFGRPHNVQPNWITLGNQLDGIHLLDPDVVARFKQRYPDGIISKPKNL
Details: calculated with DataWarrior
Quantity: LLE (lipophilic ligand efficiency, pIC50-logP)
Give only the figure.

Worked cases, answers included:
CNc1cc(N2CC3(CN(c4ccc(CN5CCC(C)(C)CC5)cc4)CC(=O)N3)C2)ncn1 [Compound 11]	4.5
CN(C)c1cc(N2CCC3(CC2)CN(c2ccc(CN4CCC(C)(C)CC4)cc2)CC(=O)N3)ncn1 [Compound 14]	3.2
CNc1cc(N2CCC(O)(CNc3ccc(CN4CCC(C)(C)CC4)nc3)CC2)ncn1 [Compound 4]	3.4
CNc1cc(N2CCC(O)(CNc3ccc(CN4CCC(C)(C)CC4)cc3)CC2)ncn1 [Compound 2]	2.5
CC(C)Nc1cc(N2CCC3(CC2)CN(c2ccc(CN4CCC(C)(C)CC4)cc2)CC(=O)N3)ncn1 [Compound 15]	3.2
CC1(C)CCN(Cc2ccc(C(=O)NC3CCN(c4cc(NCc5ccccc5)ncn4)CC3)cn2)CC1 [Compound 6]	1.7
CC1(C)CCN(Cc2ccc(N3CC(=O)NC4(CCN(c5nc(Cl)nc6[nH]ccc56)CC4)C3)cc2)CC1 [Compound 19]	3.9
CC1(C)CCN(Cc2ccc(N3CC(=O)NC4(CCN(c5ccnc6[nH]ccc56)CC4)C3)cc2)CC1 [Compound 18]	2.3

Missing value: LLE (lipophilic ligand efficiency, pIC50-logP), METTL3-METTL14 (Homo sapiens, UniProt Q86U44), entry CNc1cc(N2CCCC(O)(CNC(=O)c3ccc(CN4CCC(C)(C)CC4)cc3)C2)ncn1 (stereo not drawn) [Compound 1] . Fill in?
2.5

Identify the measured LLE (lipophilic ligand efficiency, pIC50-logP) of CNc1cc(N2CCC3(CC2)CN(c2ccc(CN4CCC(C)(C)CC4)cc2)CC(=O)N3C)ncn1 [Compound 13] for METTL3-METTL14 (Homo sapiens, UniProt Q86U44).
3.0

Missing value: LLE (lipophilic ligand efficiency, pIC50-logP), METTL3-METTL14 (Homo sapiens, UniProt Q86U44), entry CNc1cc(N2CCC3(CC2)CN(c2ccc(CN4CCC(C)(C)CC4)cc2)C(=O)N3)ncn1 [Compound 12] . Fill in?
2.6

Look up LLE (lipophilic ligand efficiency, pIC50-logP) with METTL3-METTL14 (Homo sapiens, UniProt Q86U44) for this compound: CNc1cc(N2CCC(O)(CNc3ccc(CN4CCC(C)(C)CC4)cn3)CC2)ncn1 [Compound 3]
3.2

* * *

Biological target: METTL3-METTL14 (Homo sapiens)
Details: from TR-FRET IC50
Quantity: LE (ligand efficiency)

// below: answered molecules
CNc1cc(N2CCCC(O)(CNC(=O)c3ccc(CN4CCC(C)(C)CC4)cc3)C2)ncn1 (centres unmarked) [Compound 1]	0.21 kcal.mol^−1 heavy atom count^−1
CNc1cc(N2CCC3(CC2)CN(c2ccc(CN4CCC(C)(C)CC4)cc2)CC(=O)N3C)ncn1 [Compound 13]	0.22 kcal.mol^−1 heavy atom count^−1
CC1(C)CCN(Cc2ccc(C(=O)NC3CCN(c4cc(NCc5ccccc5)ncn4)CC3)cn2)CC1 [Compound 6]	0.20 kcal.mol^−1 heavy atom count^−1
CNc1cc(N2CC3(CN(c4ccc(CN5CCC(C)(C)CC5)cc4)CC(=O)N3)C2)ncn1 [Compound 11]	0.26 kcal.mol^−1 heavy atom count^−1

# lookup: LE (ligand efficiency) of CC(C)Nc1cc(N2CCC3(CC2)CN(c2ccc(CN4CCC(C)(C)CC4)cc2)CC(=O)N3)ncn1 [Compound 15]
0.24 kcal.mol^−1 heavy atom count^−1

State the recorded LE (ligand efficiency) for this entry: CN(C)c1cc(N2CCC3(CC2)CN(c2ccc(CN4CCC(C)(C)CC4)cc2)CC(=O)N3)ncn1 [Compound 14]
0.23 kcal.mol^−1 heavy atom count^−1

Record request: LE (ligand efficiency) value, item CNc1cc(N2CCC3(CC2)CN(c2ccc(CN4CCC(C)(C)CC4)cc2)C(=O)N3)ncn1 [Compound 12]
0.23 kcal.mol^−1 heavy atom count^−1

Which LE (ligand efficiency) is listed for CC1(C)CCN(Cc2ccc(N3CC(=O)NC4(CCN(c5ccnc6[nH]ccc56)CC4)C3)cc2)CC1 [Compound 18] ?
0.20 kcal.mol^−1 heavy atom count^−1

* * *

Measured IC50, listed per entry for reference.
Biological target: METTL3-METTL14 (Homo sapiens)
Settings: read-out: IC50 for N6-adenosine-methyltransferase, exemplary PROTAC compounds; Table 9, HTRF, triplicates
Give your result in nM as a bare value.

CC1(C)CCN(Cc2ccc(N3CC(=O)NC4(CCN(c5cc(NCCCNC(=O)CCCCCCCCNc6cccc7c6CN(C6CCC(=O)NC6=O)C7=O)ncn5)CC4)C3)cc2)CC1 (stereo not shown)	260
CC1(C)CCN(Cc2cc(F)c(N3CC(=O)NC4(CCN(c5cc(NCCCNC(=O)CCCCCCCCCCn6cc(CNc7cccc8c7C(=O)N(C7CCC(=O)NC7=O)C8=O)nn6)ncn5)CC4)C3)cc2F)CC1 (stereo not shown)	220
CC1(C)CCN(Cc2cc(F)c(N3CC(=O)NC4(CCN(c5cc(NCCCNC(=O)CCCCCCCCn6cc(CNc7cccc8c7C(=O)N(C7CCC(=O)NC7=O)C8=O)nn6)ncn5)CC4)C3)cc2F)CC1 (stereo not shown)	67
CC1(C)CCN(Cc2ccc(N3CC(=O)NC4(CCN(c5cc(NCCCNC(=O)CCOCCOCCOCCNc6cccc7c6C(=O)N(C6CCC(=O)NC6=O)C7=O)ncn5)CC4)C3)cc2)CC1 (stereo not shown)	1060
CC1(C)CCN(Cc2ccc(N3CC(=O)NC4(CCN(c5cc(NCCCNC(=O)CCOCCOCCOCCOCCOCCNc6cccc7c6C(=O)N(C6CCC(=O)NC6=O)C7=O)ncn5)CC4)C3)cc2)CC1 (stereo not shown)	640
CC1(C)CCN(Cc2ccc(N3CC(=O)NC4(CCN(c5cc(NCCCNC(=O)CCCCCCCCCCCCCCNc6cccc7c6CN(C6CCC(=O)NC6=O)C7=O)ncn5)CC4)C3)cc2)CC1 (stereo not shown)	1220
CC1(C)CCN(Cc2cc(F)c(N3CC(=O)NC4(CCN(c5cc(NCc6cccc(CNC(=O)CCCCCCCCNc7cccc8c7CN(C7CCC(=O)NC7=O)C8=O)c6)ncn5)CC4)C3)cc2F)CC1 (stereo not shown)	67
CC1(C)CCN(Cc2cc(F)c(N3CC(=O)NC4(CCN(c5cc(NCCCNC(=O)CCCCCCCCCCNc6cccc7c6CN(C6CCC(=O)NC6=O)C7=O)ncn5)CC4)C3)cc2F)CC1 (stereo not shown)	300

For the molecule CC1(C)CCN(Cc2ccc(N3CC(=O)NC4(CCN(c5cc(NCCCNC(=O)CCOCCOCCNc6cccc7c6C(=O)N(C6CCC(=O)NC6=O)C7=O)ncn5)CC4)C3)cc2)CC1 (stereo not shown) , what IC50 is on record?
2470

Name the recorded IC50 for CC1(C)CCN(Cc2cc(F)c(N3CC(=O)NC4(CCN(c5cc(NCc6cccc(CNC(=O)CCCCCCCCCCNc7cccc8c7CN(C7CCC(=O)NC7=O)C8=O)c6)ncn5)CC4)C3)cc2F)CC1 (stereo not shown) .
160
